The measured values listed here are drawn from patent US20260224563A1.

# PROCEDURE SUMMARY: Pharmacokinetics of HC-7366 in male and female beagle dogs following IV and oral administration of HC-7366-K (plasma and urine, LC-MS/MS)
# Format: in vivo, Beagle Dog
# MEASUREMENT CONDITIONS: dog, plasma; female Beagle dogs, intravenous 0.5 mg/kg; read-out: volume of distribution at steady state (Vss)
MEASUREMENT KIND: Vd (L/kg)
Numbers only, in L/kg.

Lookup: # Vd lookup, item CNC(=O)c1ncn2cc(-c3c(F)ccc(NS(=O)(=O)c4cc(Cl)cnc4OC)c3F)ncc12
Found: 0.084

* * *

# PROCEDURE SUMMARY: Multicenter, open-label, Phase 1a/b study of HC-7366 in subjects with advanced solid tumors (safety, PK)
# Type: in vivo
# MEASUREMENT CONDITIONS: human, plasma, po, 40 mg, human, multiple once daily oral 40 mg (N = 8), Cycle 1 Day 21, median
MEASUREMENT KIND: Tmax
Please don't drop the unit; write it after the number.

Lookup: // lookup Tmax for CNC(=O)c1ncn2cc(-c3c(F)ccc(NS(=O)(=O)c4cc(Cl)cnc4OC)c3F)ncc12 [HC-7366]
Found: 2 h

* * *

# PROCEDURE SUMMARY: Pharmacokinetics of HC-7366 in male and female beagle dogs following IV and oral administration of HC-7366-K (plasma and urine, LC-MS/MS)
# Assay type: in vivo, Beagle Dog
# MEASUREMENT CONDITIONS: dog; Male Beagle dogs, PO 150 mg/kg, t = 48 h, HC-7366 in plasma, mean n = 3
MEASUREMENT KIND: AUC(0-t) (µg·h/mL)
One number for each entry, in µg·h/mL.

Lookup: Could you share which AUC(0-t) value was measured for CNC(=O)c1ncn2cc(-c3c(F)ccc(NS(=O)(=O)c4cc(Cl)cnc4OC)c3F)ncc12 ?
Found: 5170

* * *

# PROCEDURE SUMMARY: Pharmacokinetics of HC-7366 in male and female beagle dogs following IV and oral administration of HC-7366-K (plasma and urine, LC-MS/MS)
# Type: in vivo, Beagle Dog
# MEASUREMENT CONDITIONS: plasma; male beagle dog, oral 50 mg/kg; read-out: terminal half-life (t1/2) (converted)
MEASUREMENT KIND: half-life (h)
One number for each entry, in h.

Lookup: Recorded half-life of CNC(=O)c1ncn2cc(-c3c(F)ccc(NS(=O)(=O)c4cc(Cl)cnc4OC)c3F)ncc12 [HC-7366-K] , please.
Found: 17

* * *

# PROCEDURE SUMMARY: Multicenter, open-label, Phase 1a/b study of HC-7366 in subjects with advanced solid tumors (safety, PK)
# Format: in vivo
# MEASUREMENT CONDITIONS: human, plasma, po, 20 mg, human, single oral dose 20 mg (N = 3), Cycle 1 Day 1, median
MEASUREMENT KIND: Tmax (h)
Numbers only, in h.

Lookup: If you can, please state the reported Tmax value of CNC(=O)c1ncn2cc(-c3c(F)ccc(NS(=O)(=O)c4cc(Cl)cnc4OC)c3F)ncc12 [HC-7366] .
Found: 4

* * *

# PROCEDURE SUMMARY: Multicenter, open-label, Phase 1a/b study of HC-7366 in subjects with advanced solid tumors (safety, PK)
# Type: in vivo
# MEASUREMENT CONDITIONS: human, plasma, po, 40 mg, human, single oral dose 40 mg (N = 11), Cycle 1 Day 1, median
MEASUREMENT KIND: Tmax (h)
One number for each entry, in h.

Lookup: Recorded Tmax of CNC(=O)c1ncn2cc(-c3c(F)ccc(NS(=O)(=O)c4cc(Cl)cnc4OC)c3F)ncc12 [HC-7366] , please.
Found: 2

* * *

# PROCEDURE SUMMARY: Pharmacokinetic study of HC-7366 via oral (PO) administration of different formulations in beagle dogs
# Assay type: in vivo
# MEASUREMENT CONDITIONS: dog, plasma, 7.5 mg/kg; in a capsule, PO 7.5 mpk, male beagle dogs, n=3
# Method: 10 mL of 0.001 N HCl was used to wash the gavage catheter for each animal.
Where a name gives a salt, the structure may show the parent alone.
MEASUREMENT KIND: bioavailability

Lookup: Which value of bioavailability has been reported for CNC(=O)c1ncn2cc(-c3c(F)ccc(NS(=O)(=O)c4cc(Cl)cnc4OC)c3F)ncc12 [Potassium salt Form III] in the records?
Found: ~50%

* * *

# PROCEDURE SUMMARY: Multicenter, open-label, Phase 1a/b study of HC-7366 in subjects with advanced solid tumors (safety, PK)
# Assay type: in vivo
# MEASUREMENT CONDITIONS: human, plasma, po, 125 mg, human, single oral dose 125 mg (N = 6), Cycle 1 Day 1, geometric mean; read-out: Vz/F
MEASUREMENT KIND: Vd/F

Lookup: Given the entry CNC(=O)c1ncn2cc(-c3c(F)ccc(NS(=O)(=O)c4cc(Cl)cnc4OC)c3F)ncc12 , report its measured Vd/F.
Found: 7.85 L

* * *

# PROCEDURE SUMMARY: Multicenter, open-label, Phase 1a/b study of HC-7366 in subjects with advanced solid tumors (safety, PK)
# Assay type: in vivo
# MEASUREMENT CONDITIONS: human, plasma, po, 10 mg, human, single oral dose 10 mg (N = 3), Cycle 1 Day 1, median
# Excerpt: […]
MEASUREMENT KIND: Tmax (h)
One number for each entry, in h.

Lookup: What does the record list as Tmax for CNC(=O)c1ncn2cc(-c3c(F)ccc(NS(=O)(=O)c4cc(Cl)cnc4OC)c3F)ncc12 ?
Found: 2

* * *

# PROCEDURE SUMMARY: Multicenter, open-label, Phase 1a/b study of HC-7366 in subjects with advanced solid tumors (safety, PK)
# Assay type: in vivo
# MEASUREMENT CONDITIONS: human, plasma, po, 40 mg, human, single oral dose 40 mg (N = 11), Cycle 1 Day 1, geometric mean; read-out: AUC0-24
MEASUREMENT KIND: AUC(0-t) (ng·h/mL)
Answers are plain numbers, in ng·h/mL.

Lookup: Give the measured AUC(0-t) of CNC(=O)c1ncn2cc(-c3c(F)ccc(NS(=O)(=O)c4cc(Cl)cnc4OC)c3F)ncc12 .
Found: 52900

* * *

# PROCEDURE SUMMARY: Multicenter, open-label, Phase 1a/b study of HC-7366 in subjects with advanced solid tumors (safety, PK)
# Type: in vivo
# MEASUREMENT CONDITIONS: human, plasma, po, 75 mg, human, multiple once daily oral 75 mg (N = 7), Cycle 1 Day 21, geometric mean; read-out: AUC0-last
# Text: […]
MEASUREMENT KIND: AUC(0-t) (µg·h/mL)
One number for each entry, in µg·h/mL.

Lookup: May I ask what AUC(0-t) has been recorded for CNC(=O)c1ncn2cc(-c3c(F)ccc(NS(=O)(=O)c4cc(Cl)cnc4OC)c3F)ncc12 ?
Found: 166

* * *

# PROCEDURE SUMMARY: Multicenter, open-label, Phase 1a/b study of HC-7366 in subjects with advanced solid tumors (safety, PK)
# Type: in vivo
# MEASUREMENT CONDITIONS: human, plasma, po, 10 mg, human, multiple once daily oral 10 mg (N = 3), Cycle 1 Day 21, median
MEASUREMENT KIND: Tmax (h)
Give bare numbers, in h.

Lookup: Item under review: CNC(=O)c1ncn2cc(-c3c(F)ccc(NS(=O)(=O)c4cc(Cl)cnc4OC)c3F)ncc12 . Reported Tmax?
Found: 2

* * *

# PROCEDURE SUMMARY: Solubility testing in organic solvents and water (visual, room temperature)
# Format: physicochemical
# MEASUREMENT CONDITIONS: DMSO, 24 °C, organic solvent or mixture, thermodynamic from solid, DMSO, read-out: Solubility
Where a name gives a salt, the structure may show the parent alone.
MEASUREMENT KIND: Solubility

Lookup: Recorded Solubility for CNC(=O)c1ncn2cc(-c3c(F)ccc(NS(=O)(=O)c4cc(Cl)cnc4OC)c3F)ncc12 [Potassium salt Form III] , please?
Found: > 180 mg/mL

* * *

# PROCEDURE SUMMARY: Pharmacokinetics of HC-7366 in male and female beagle dogs following IV and oral administration of HC-7366-K (plasma and urine, LC-MS/MS)
# Assay type: in vivo, Beagle Dog
# MEASUREMENT CONDITIONS: dog, plasma; male beagle dogs, intravenous 0.5 mg/kg; read-out: Clearance (CL)
MEASUREMENT KIND: clearance (mL/min/kg)
Give bare numbers, in mL/min/kg.

Lookup: May I ask what clearance has been recorded for CNC(=O)c1ncn2cc(-c3c(F)ccc(NS(=O)(=O)c4cc(Cl)cnc4OC)c3F)ncc12 ?
Found: 0.1

* * *

# PROCEDURE SUMMARY: Multicenter, open-label, Phase 1a/b study of HC-7366 in subjects with advanced solid tumors (safety, PK)
# Type: in vivo
# MEASUREMENT CONDITIONS: human, plasma, po, 125 mg, human, single oral dose 125 mg (N = 6), Cycle 1 Day 1, median
MEASUREMENT KIND: Tmax (h)
Answers are plain numbers, in h.

Lookup: Given the compound CNC(=O)c1ncn2cc(-c3c(F)ccc(NS(=O)(=O)c4cc(Cl)cnc4OC)c3F)ncc12 , what is its reported Tmax?
Found: 2
